Test system: Lactobacillus acidophilus TSP-La1
measurement description: Antibiotic susceptibility by disk diffusion method
Format: cell-based
cond: 30 μg
measure: Resistant/Sensitive

molecule	measure	measurement
O=C(N[C@H](CO)[C@H](O)c1ccc([N+](=O)[O-])cc1)C(Cl)Cl [Chloramphenicol]	Resistant/Sensitive	Sensitive
CC(=O)OCC1=C(C(=O)O)N2C(=O)[C@@H](NC(=O)Cc3cccs3)[C@H]2SC1 [Cephalothin]	Resistant/Sensitive	Sensitive
CC1(C)S[C@@H]2[C@H](NC(=O)[C@H](N)c3ccc(O)cc3)C(=O)N2[C@H]1C(=O)O [Amoxicillin]	Resistant/Sensitive	Sensitive

* * *

Test system: Lactobacillus plantarum TSP-Lp1
measurement description: Antibiotic susceptibility by disk diffusion method
Format: cell-based
cond: 30 μg

test smiles	Resistant/Sensitive
CC(=O)OCC1=C(C(=O)O)N2C(=O)[C@@H](NC(=O)Cc3cccs3)[C@H]2SC1	Sensitive
O=C(N[C@H](CO)[C@H](O)c1ccc([N+](=O)[O-])cc1)C(Cl)Cl	Sensitive
CC1(C)S[C@@H]2[C@H](NC(=O)[C@H](N)c3ccc(O)cc3)C(=O)N2[C@H]1C(=O)O	Sensitive
